From: patent US20230406935A1

targetDesc: Biotinylated hPD-L1-Fc-Avi (human, UniProt Q9NZQ7 19-238)
Sequence (Q9NZQ7 19-238 limits assumed): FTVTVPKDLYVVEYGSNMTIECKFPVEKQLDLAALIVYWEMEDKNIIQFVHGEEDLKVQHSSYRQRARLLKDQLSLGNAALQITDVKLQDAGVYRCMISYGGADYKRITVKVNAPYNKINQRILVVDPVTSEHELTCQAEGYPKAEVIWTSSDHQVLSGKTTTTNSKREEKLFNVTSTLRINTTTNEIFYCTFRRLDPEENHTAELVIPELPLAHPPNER
assayComment: cell-based RBA, blocking of hPD-L1-Fc-Avi binding to HEK293 hPD-1 cells
measuredQuantity: pEC50
# log scale: pEC50 equals minus log10 of the concentration in mol/L

What pEC50 value was documented for this binder, Fcab FS17-33-334 (designed binder) TCPPCPAPELLGGPSVFLFPPKPKDTLMISRTPEVTCVVVDVSHEDPEVKFNWYVDGVEVHNAKTKPREEQYNSTYRVVSVLTVLHQDWLNGKEYKCKVSNKALPAPIEKTISKAKGQPREPQVYTLPPSRDESGYWVSLTCLVKGFYPSDIAVEWESNGEPQYWAKTTPPVLDSDGSFFLYSKLTVSNWRWQLDDFSCSVMHEALHNHYTQKSLSLSPGK ? 9.00

Turning now to a further record.
Look up pEC50: Fcab FS17-33-116 (designed binder) TCPPCPAPELLGGPSVFLFPPKPKDTLMISRTPEVTCVVVDVSHEDPEVKFNWYVDGVEVHNAKTKPREEQYNSTYRVVSVLTVLHQDWLNGKEYKCKVSNKALPAPIEKTISKAKGQPREPQVYTLPPSRDESGYWVSLTCLVKGFYPSDIVVEWESNGEPQYWAKTTPPVLDSDGSFFLYSKLTVSNWRWQMDDFSCSVMHEALHNHYTQKSLSLSPGK 8.02
